- test.settings: in n-propanol, 318.15 K
measure: solubility (mole fraction)
Answer with the value's number alone.

Reported solubility (mole fraction), molecule `O=C(O)c1cccnc1Nc1cccc(C(F)(F)F)c1` : ____
0.0202

* * *

- test.settings: in n-hexane, 308.15 K
measure: solubility (mole fraction)
Answer with the value's number alone.

Reported solubility (mole fraction), molecule `O=C(O)c1cccnc1Nc1cccc(C(F)(F)F)c1` : ____
0.00678

* * *

- test.settings: in toluene, 313.15 K
measure: solubility (mole fraction)
Answer with the value's number alone.

Reported solubility (mole fraction), molecule `O=C(O)c1cccnc1Nc1cccc(C(F)(F)F)c1` : ____
0.0073

* * *

- test.settings: in ethyl acetate, 318.15 K
measure: solubility (mole fraction)
Answer with the value's number alone.

Reported solubility (mole fraction), compound `O=C(O)c1cccnc1Nc1cccc(C(F)(F)F)c1` : ____
0.0439

* * *

- test.settings: in n-hexane, 303.15 K
measure: solubility (mole fraction)
Answer with the value's number alone.

Reported solubility (mole fraction), compound `O=C(O)c1cccnc1Nc1cccc(C(F)(F)F)c1` : ____
0.00539

* * *

- test.settings: in toluene, 298.15 K
measure: solubility (mole fraction)
Answer with the value's number alone.

Reported solubility (mole fraction), compound `O=C(O)c1cccnc1Nc1cccc(C(F)(F)F)c1` : ____
0.00242

* * *

- test.settings: in methanol, 303.15 K
measure: solubility (mole fraction)
Answer with the value's number alone.

Reported solubility (mole fraction), compound `O=C(O)c1cccnc1Nc1cccc(C(F)(F)F)c1` : ____
0.00967

* * *

- test.settings: in n-heptane, 293.15 K
measure: solubility (mole fraction)
Answer with the value's number alone.

Reported solubility (mole fraction), compound `O=C(O)c1cccnc1Nc1cccc(C(F)(F)F)c1` : ____
0.00276

* * *

- test.settings: in MTBE, 303.15 K
measure: solubility (mole fraction)
Answer with the value's number alone.

Reported solubility (mole fraction), compound `O=C(O)c1cccnc1Nc1cccc(C(F)(F)F)c1` : ____
0.0549

* * *

- test.settings: in isopropyl acetate, 318.15 K
measure: solubility (mole fraction)
Answer with the value's number alone.

Reported solubility (mole fraction), compound `O=C(O)c1cccnc1Nc1cccc(C(F)(F)F)c1` : ____
0.05

* * *

- test.settings: in isopropyl acetate, 328.15 K
measure: solubility (mole fraction)

Reported solubility (mole fraction), molecule `O=C(O)c1cccnc1Nc1cccc(C(F)(F)F)c1` : ____
0.0637

* * *

- test.settings: in ethyl acetate, 303.15 K
measure: solubility (mole fraction)
Answer with the value's number alone.

Reported solubility (mole fraction), compound `O=C(O)c1cccnc1Nc1cccc(C(F)(F)F)c1` : ____
0.0308

* * *

- test.settings: in diisopropyl ether, 298.15 K
measure: solubility (mole fraction)
Answer with the value's number alone.

Reported solubility (mole fraction), compound `O=C(O)c1cccnc1Nc1cccc(C(F)(F)F)c1` : ____
0.0146

* * *

- test.settings: in acetone, 323.15 K
measure: solubility (mole fraction)
Answer with the value's number alone.

Reported solubility (mole fraction), compound `O=C(O)c1cccnc1Nc1cccc(C(F)(F)F)c1` : ____
0.053

* * *

- test.settings: in methanol, 318.15 K
measure: solubility (mole fraction)
Answer with the value's number alone.

Reported solubility (mole fraction), molecule `O=C(O)c1cccnc1Nc1cccc(C(F)(F)F)c1` : ____
0.0135

* * *

- test.settings: in toluene, 318.15 K
measure: solubility (mole fraction)

Reported solubility (mole fraction), molecule `O=C(O)c1cccnc1Nc1cccc(C(F)(F)F)c1` : ____
0.00991

* * *

- test.settings: in MTBE, 318.15 K
measure: solubility (mole fraction)

Reported solubility (mole fraction), compound `O=C(O)c1cccnc1Nc1cccc(C(F)(F)F)c1` : ____
0.073

* * *

- test.settings: in isopropanol, 298.15 K
measure: solubility (mole fraction)
Answer with the value's number alone.

Reported solubility (mole fraction), molecule `O=C(O)c1cccnc1Nc1cccc(C(F)(F)F)c1` : ____
0.00941

* * *

- test.settings: in isopropyl acetate, 298.15 K
measure: solubility (mole fraction)

Reported solubility (mole fraction), compound `O=C(O)c1cccnc1Nc1cccc(C(F)(F)F)c1` : ____
0.029

* * *

- test.settings: in acetonitrile, 308.15 K
measure: solubility (mole fraction)
Answer with the value's number alone.

Reported solubility (mole fraction), compound `O=C(O)c1cccnc1Nc1cccc(C(F)(F)F)c1` : ____
0.00319

* * *

- test.settings: in acetonitrile, 303.15 K
measure: solubility (mole fraction)
Answer with the value's number alone.

Reported solubility (mole fraction), compound `O=C(O)c1cccnc1Nc1cccc(C(F)(F)F)c1` : ____
0.00235

* * *

- test.settings: in ethanol, 313.15 K
measure: solubility (mole fraction)

Reported solubility (mole fraction), compound `O=C(O)c1cccnc1Nc1cccc(C(F)(F)F)c1` : ____
0.0153

* * *

- test.settings: in ethanol, 318.15 K
measure: solubility (mole fraction)
Answer with the value's number alone.

Reported solubility (mole fraction), molecule `O=C(O)c1cccnc1Nc1cccc(C(F)(F)F)c1` : ____
0.0177

* * *

- test.settings: in isopropyl acetate, 293.15 K
measure: solubility (mole fraction)
Answer with the value's number alone.

Reported solubility (mole fraction), compound `O=C(O)c1cccnc1Nc1cccc(C(F)(F)F)c1` : ____
0.0264

* * *

- test.settings: in n-heptane, 318.15 K
measure: solubility (mole fraction)
Answer with the value's number alone.

Reported solubility (mole fraction), molecule `O=C(O)c1cccnc1Nc1cccc(C(F)(F)F)c1` : ____
0.0121

* * *

- test.settings: in n-hexane, 293.15 K
measure: solubility (mole fraction)
Answer with the value's number alone.

Reported solubility (mole fraction), compound `O=C(O)c1cccnc1Nc1cccc(C(F)(F)F)c1` : ____
0.00256

* * *

- test.settings: in acetonitrile, 298.15 K
measure: solubility (mole fraction)
Answer with the value's number alone.

Reported solubility (mole fraction), compound `O=C(O)c1cccnc1Nc1cccc(C(F)(F)F)c1` : ____
0.0018

* * *

- test.settings: in acetone, 328.15 K
measure: solubility (mole fraction)
Answer with the value's number alone.

Reported solubility (mole fraction), compound `O=C(O)c1cccnc1Nc1cccc(C(F)(F)F)c1` : ____
0.0572

* * *

- test.settings: in n-heptane, 288.15 K
measure: solubility (mole fraction)
Answer with the value's number alone.

Reported solubility (mole fraction), compound `O=C(O)c1cccnc1Nc1cccc(C(F)(F)F)c1` : ____
0.00171

* * *

- test.settings: in toluene, 303.15 K
measure: solubility (mole fraction)
Answer with the value's number alone.

Reported solubility (mole fraction), molecule `O=C(O)c1cccnc1Nc1cccc(C(F)(F)F)c1` : ____
0.00395

* * *

- test.settings: in acetonitrile, 328.15 K
measure: solubility (mole fraction)
Answer with the value's number alone.

Reported solubility (mole fraction), compound `O=C(O)c1cccnc1Nc1cccc(C(F)(F)F)c1` : ____
0.00898

* * *

- test.settings: in cyclohexane, 308.15 K
measure: solubility (mole fraction)
Answer with the value's number alone.

Reported solubility (mole fraction), molecule `O=C(O)c1cccnc1Nc1cccc(C(F)(F)F)c1` : ____
0.00887

* * *

- test.settings: in cyclohexane, 323.15 K
measure: solubility (mole fraction)
Answer with the value's number alone.

Reported solubility (mole fraction), compound `O=C(O)c1cccnc1Nc1cccc(C(F)(F)F)c1` : ____
0.0158

* * *

- test.settings: in n-propanol, 323.15 K
measure: solubility (mole fraction)
Answer with the value's number alone.

Reported solubility (mole fraction), compound `O=C(O)c1cccnc1Nc1cccc(C(F)(F)F)c1` : ____
0.0232

* * *

- test.settings: in ethanol, 288.15 K
measure: solubility (mole fraction)
Answer with the value's number alone.

Reported solubility (mole fraction), compound `O=C(O)c1cccnc1Nc1cccc(C(F)(F)F)c1` : ____
0.00748

* * *

- test.settings: in acetone, 318.15 K
measure: solubility (mole fraction)
Answer with the value's number alone.

Reported solubility (mole fraction), compound `O=C(O)c1cccnc1Nc1cccc(C(F)(F)F)c1` : ____
0.048

* * *

- test.settings: in n-hexane, 288.15 K
measure: solubility (mole fraction)
Answer with the value's number alone.

Reported solubility (mole fraction), compound `O=C(O)c1cccnc1Nc1cccc(C(F)(F)F)c1` : ____
0.00145

* * *

- test.settings: in n-propanol, 313.15 K
measure: solubility (mole fraction)
Answer with the value's number alone.

Reported solubility (mole fraction), compound `O=C(O)c1cccnc1Nc1cccc(C(F)(F)F)c1` : ____
0.0174

* * *

- test.settings: in MTBE, 293.15 K
measure: solubility (mole fraction)

Reported solubility (mole fraction), molecule `O=C(O)c1cccnc1Nc1cccc(C(F)(F)F)c1` : ____
0.0471

* * *

- test.settings: in isopropanol, 323.15 K
measure: solubility (mole fraction)

Reported solubility (mole fraction), compound `O=C(O)c1cccnc1Nc1cccc(C(F)(F)F)c1` : ____
0.0209

* * *

- test.settings: in MTBE, 288.15 K
measure: solubility (mole fraction)
Answer with the value's number alone.

Reported solubility (mole fraction), molecule `O=C(O)c1cccnc1Nc1cccc(C(F)(F)F)c1` : ____
0.0428
